// data source = patent US10059701B2

# tested-system: IRAK1 (Homo sapiens, UniProt P51617)
# Construct: His-TEV-IRAK1 (194-712); His (N); TEV cleavage site (N)
# Sequence (P51617 194-712): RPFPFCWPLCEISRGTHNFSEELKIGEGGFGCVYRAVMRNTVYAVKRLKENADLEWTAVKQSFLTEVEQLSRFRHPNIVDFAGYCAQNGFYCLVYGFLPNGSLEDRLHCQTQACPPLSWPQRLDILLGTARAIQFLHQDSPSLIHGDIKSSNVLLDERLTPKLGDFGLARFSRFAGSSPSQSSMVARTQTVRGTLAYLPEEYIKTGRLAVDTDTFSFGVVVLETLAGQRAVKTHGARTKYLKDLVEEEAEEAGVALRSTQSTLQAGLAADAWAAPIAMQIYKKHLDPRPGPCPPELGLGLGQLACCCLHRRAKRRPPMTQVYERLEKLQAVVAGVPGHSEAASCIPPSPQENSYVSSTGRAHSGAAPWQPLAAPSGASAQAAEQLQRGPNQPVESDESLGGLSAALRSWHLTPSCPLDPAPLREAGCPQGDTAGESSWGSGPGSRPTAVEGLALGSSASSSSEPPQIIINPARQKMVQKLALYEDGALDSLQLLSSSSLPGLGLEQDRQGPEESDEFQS
# protocol-details: IRAK1 enzymatic assay (ADP-Glo luminescence)
# cond: purified human recombinant His-TEV-IRAK1 (194-712)
pIC50: −log10 of the molar value.
// pIC50 lookup, one value per entry

>  <molecule>
O=C(/N=c1\[nH]c2cc(N3CCSCC3=O)ccc2n1CCCO)c1cccc(C(F)F)c1

>  <result>
≥ 7.00

$$$$

QUERY: # return pIC50 for O=C(/N=c1\[nH]c2cc(N3CCOCC3=O)ccc2n1CCCO)c1cccc(-c2cc[nH]c(=O)c2)c1 , test system: IRAK1 (Homo sapiens, UniProt P51617)
RESULT: ≥ 7.00

QUERY: # return pIC50 for CS(=O)(=O)N1CCC(n2/c(=N/C(=O)c3cccc(C(F)F)c3)[nH]c3cc(N4CCOCC4=O)ccc32)CC1 , test system: IRAK1 (Homo sapiens, UniProt P51617)
RESULT: ≥ 7.00

QUERY: # return pIC50 for CC1(C)CCOC(=O)N1c1ccc2c(c1)[nH]/c(=N\C(=O)c1cccc(C(F)F)c1)n2CCCO , test system: IRAK1 (Homo sapiens, UniProt P51617)
RESULT: ≥ 7.00

QUERY: # return pIC50 for Cn1nc(C(=O)/N=c2\[nH]c3cc(N4CCOCC4=O)ccc3n2CCCO)c2ccccc21 , test system: IRAK1 (Homo sapiens, UniProt P51617)
RESULT: < 6.00

QUERY: # return pIC50 for O=C(/N=c1\[nH]c2cc(N3CC4CCC(C3=O)N4C3CC3)ccc2n1CCCO)c1cccc(C(F)F)c1 (stereo not shown) , test system: IRAK1 (Homo sapiens, UniProt P51617)
RESULT: 6.00 to 7.00

QUERY: # return pIC50 for C[C@H](CCO)n1/c(=N/C(=O)c2cccc(C(F)F)c2)[nH]c2cc(N3CCOCC3=O)ccc21 , test system: IRAK1 (Homo sapiens, UniProt P51617)
RESULT: ≥ 7.00

* * *

# tested-system: IRAK4 (Homo sapiens, UniProt Q9NWZ3)
# Construct: His-TEV-IRAK4 (1-460); His (N); TEV cleavage site (N)
# Sequence (Q9NWZ3 whole entry): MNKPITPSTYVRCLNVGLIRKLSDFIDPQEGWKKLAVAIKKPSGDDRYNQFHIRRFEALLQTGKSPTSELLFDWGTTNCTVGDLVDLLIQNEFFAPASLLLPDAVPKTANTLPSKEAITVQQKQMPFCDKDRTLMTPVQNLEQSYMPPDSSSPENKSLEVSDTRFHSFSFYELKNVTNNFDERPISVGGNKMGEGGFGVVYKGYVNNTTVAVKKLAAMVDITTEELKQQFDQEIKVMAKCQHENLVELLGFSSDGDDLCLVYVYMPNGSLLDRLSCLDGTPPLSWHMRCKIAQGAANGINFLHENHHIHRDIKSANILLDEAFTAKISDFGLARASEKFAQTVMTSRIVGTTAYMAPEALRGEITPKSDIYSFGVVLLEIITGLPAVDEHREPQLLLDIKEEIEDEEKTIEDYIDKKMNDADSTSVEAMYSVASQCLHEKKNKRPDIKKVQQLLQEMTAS
# protocol-details: IRAK4 enzymatic assay (ADP-Glo luminescence)
# cond: purified human recombinant His-TEV-IRAK4 (1-460), ATP 2 μM
pIC50: −log10 of the molar value.
// pIC50 lookup, one value per entry

// solved cases for pIC50 follow
>  <compound>
O=C(/N=c1\[nH]c2cc(N3CCOCC3=O)ccc2n1CCCO)c1cccc(S(=O)(=O)C(F)(F)F)c1 [Compound 152]

>  <result>
≥ 7.00

$$$$
>  <compound>
O=C(/N=c1\[nH]c2cc(N3CCOCC3=O)ccc2n1CCCO)c1ccc2scnc2c1 [Example 232]

>  <result>
≥ 7.00

$$$$
>  <compound>
O=C(/N=c1\[nH]c2cc(N3CCOCC3=O)ccc2n1[C@H]1CCCC[C@H]1CO)c1cccc(C(F)(F)F)c1 (racemic) [Compound 116]

>  <result>
6.00 to 7.00

$$$$

QUERY: Given the compound CC1(C)C(=O)N(c2ccc3c(c2)[nH]/c(=N\C(=O)c2cccc(C(F)(F)F)c2)n3CCCO)CCN1C1CC1 [Compound 194] , write its reported pIC50.
RESULT: ≥ 7.00

QUERY: Given the compound CCC(CCO)n1/c(=N/C(=O)c2cccc(C(F)(F)F)c2)[nH]c2cc(N3CCOCC3=O)ccc21 (racemic) [Compound 124] , write its reported pIC50.
RESULT: 6.00 to 7.00

QUERY: Given the compound O=C(/N=c1\[nH]c2cc(N3CCOCC3=O)ccc2n1CC1(CO)CC1)c1cccc(OC(F)F)c1 [Compound 66] , write its reported pIC50.
RESULT: ≥ 7.00

QUERY: Given the compound CC1(C)CCOC(=O)N1c1ccc2c(c1)[nH]/c(=N\C(=O)c1cccc(C(F)F)c1)n2CCCO [Example 218] , write its reported pIC50.
RESULT: ≥ 7.00

QUERY: Given the compound O=C(/N=c1\[nH]c2cc(N3CC4CC(N4)C3=O)ccc2n1CCCO)c1cccc(C(F)F)c1 (stereo not drawn) [Example 213] , write its reported pIC50.
RESULT: ≥ 7.00

QUERY: Given the compound Cn1cnc2cc(C(=O)/N=c3\[nH]c4cc(N5CCOCC5=O)ccc4n3CCCO)ccc21 [Compound 22] , write its reported pIC50.
RESULT: < 6.00

QUERY: Given the compound N#Cc1cccc(C(=O)/C=C2\Nc3cc(N4CCOCC4=O)ccc3N2CCCO)c1 [Compound 146] , write its reported pIC50.
RESULT: 6.00 to 7.00

QUERY: Given the compound N#Cc1cccc(C(=O)/N=c2\[nH]c3cc(N4CCCOC4=O)ccc3n2CCCO)c1 [Compound 58] , write its reported pIC50.
RESULT: ≥ 7.00

QUERY: Given the compound O=C(/N=c1\[nH]c2cc(N3CCCOCC3=O)ccc2n1CCCO)c1cccc(C(F)F)c1 [Example 186] , write its reported pIC50.
RESULT: ≥ 7.00

QUERY: Given the compound O=C(/N=c1\[nH]c2cc(N3CCCNC3=O)ccc2n1CCCO)c1cccc(C(F)F)c1 [Compound 46] , write its reported pIC50.
RESULT: ≥ 7.00

QUERY: Given the compound [2H]C([2H])([2H])Oc1cc2c(cc1N1CCCOC1=O)[nH]/c(=N\C(=O)c1cccc(C(F)(F)F)c1)n2CCCO [Example 204] , write its reported pIC50.
RESULT: ≥ 7.00

QUERY: Given the compound O=C(/N=c1\[nH]c2cc(N3CCN(C4CC4)CC3=O)ccc2n1CCCO)c1cccc(C(F)F)c1 [Compound 182] , write its reported pIC50.
RESULT: ≥ 7.00

* * *

// pIC50 lookup, one value per entry
# tested-system: IRAK1 (Homo sapiens, UniProt P51617)
# Construct: His-TEV-IRAK1 (194-712); His (N); TEV cleavage site (N)
# protocol-details: IRAK1 enzymatic assay (ADP-Glo luminescence)
# cond: purified human recombinant His-TEV-IRAK1 (194-712)
pIC50: −log10 of the molar value.

QUERY: Given the molecule O=C(/N=c1\[nH]c2cc(N3CC4CCC(O4)C3=O)ccc2n1CCCO)c1cccc(C(F)(F)F)c1 (stereo not drawn) [Example 217] , write its reported pIC50.
RESULT: 6.00 to 7.00

QUERY: Given the molecule CS(=O)(=O)CCCn1/c(=N/C(=O)c2cccc(C(F)F)c2)[nH]c2cc(N3CCOCC3=O)ccc21 [Compound 90] , write its reported pIC50.
RESULT: ≥ 7.00

QUERY: Given the molecule N#Cc1cccc(C(=O)/N=c2\[nH]c3cc(N4CCOCC4=O)ccc3n2[C@H]2CC[C@@H](O)CC2)c1 [Compound 55] , write its reported pIC50.
RESULT: ≥ 7.00

QUERY: Given the molecule O=C(/N=c1\[nH]c2cc(N3CC4CC(N4)C3=O)ccc2n1CCCO)c1cccc(C(F)(F)F)c1 (stereo not drawn) [Example 216] , write its reported pIC50.
RESULT: 6.00 to 7.00

QUERY: Given the molecule COc1ccc(C(=O)/N=c2\[nH]c3cc(N4CCOCC4=O)ccc3n2CCCO)cc1C#N [Compound 38] , write its reported pIC50.
RESULT: < 6.00

QUERY: Given the molecule C[C@H](CCO)n1/c(=N/C(=O)c2cccc(C#N)c2)[nH]c2cc(N3CCOCC3=O)ccc21 [Compound 10] , write its reported pIC50.
RESULT: 6.00 to 7.00

QUERY: Given the molecule O=C(/N=c1\[nH]c2cc(N3CCOCC3=O)ccc2n1C1CCS(=O)(=O)CC1)c1cccc(C(F)F)c1 [Compound 80] , write its reported pIC50.
RESULT: ≥ 7.00

QUERY: Given the molecule O=C(/N=c1\[nH]c2cc(N3CCOCC3=O)ccc2n1CCCO)c1cccc(-c2ccn(CC(F)(F)F)c(=O)c2)c1 [Compound 163] , write its reported pIC50.
RESULT: 6.00 to 7.00

* * *

# tested-system: IRAK1 (Homo sapiens)
# Construct: His-TEV-IRAK1 (194-712); His (N); TEV cleavage site (N)
# protocol-details: IRAK1 enzymatic assay (ADP-Glo luminescence)
# Type: biochemical
# cond: purified human recombinant His-TEV-IRAK1 (194-712)
# Procedure: IRAK1 is a human purified recombinant enzyme (His-TEV-IRAK1 (194-712)) In this assay, IRAK1 hydrolyses ATP and autophosphorylates. Measurement of IRAK-1 inhibition is performed in 384-well format based on luminescence assay (ADP-Glo™ Kinase Assay from Promega). […] After 20 minutes of incubation at RT, the luminescence signal is measured with a luminometer (PerkinElmer Envision or equivalent reader).
pIC50: −log10 of the molar value.
// pIC50 lookup, one value per entry

// solved cases for pIC50 follow
>  <compound>
O=C(/N=c1\[nH]c2cc(N3CCOCC3=O)ccc2n1CCCCO)c1cccc(C(F)(F)F)c1

>  <pIC50>
6.00 to 7.00

$$$$
>  <compound>
[2H]C([2H])([2H])Oc1cc2c(cc1N1CCOCC1=O)[nH]/c(=N\C(=O)c1cccc(C(F)F)c1)n2CCCO

>  <pIC50>
≥ 7.00

$$$$
>  <compound>
O=C(/N=c1\[nH]c2cc(-n3ccccc3=O)ccc2n1CCCO)c1cccc(C(F)(F)F)c1

>  <pIC50>
6.00 to 7.00

$$$$
>  <compound>
O=C(/N=c1\[nH]c2cc(N3CCCOC3=O)ccc2n1CC1CCCCO1)c1cccc(C(F)F)c1 (stereo not shown)

>  <pIC50>
6.00 to 7.00

$$$$

QUERY: Given the compound CS(=O)(=O)N1CCC(n2/c(=N/C(=O)c3cccc(C(F)(F)F)c3)[nH]c3cc(N4CCOCC4=O)ccc32)CC1 , write its reported pIC50.
RESULT: 6.00 to 7.00

QUERY: Given the compound CC(C)N1CCN(c2ccc3c(c2)[nH]/c(=N\C(=O)c2cccc(C(F)F)c2)n3CCCO)C(=O)C1 , write its reported pIC50.
RESULT: ≥ 7.00

QUERY: Given the compound CN1CCN(c2ccc3c(c2)[nH]/c(=N\C(=O)c2cccc(C(F)F)c2)n3CCCO)C(=O)C1 , write its reported pIC50.
RESULT: 6.00 to 7.00
